Experiment: SUPPLEMENTARY: Lyophilisation Solubility Assay (LYSA)
Type: physicochemical
Settings: read-out: Kinetic_solubility
assay.endpoint: solubility kinetic (µg/mL)
Value expressed in µg/mL; do not type the unit.

Completed entries (count: 6):
[
  {
    "compound.string": "O=C(O)c1ccc(NC(=O)c2ccc3c(c2)N(S(=O)(=O)c2cccc(Cl)c2)CCS3)cc1",
    "unit.abbrev": "µg/mL",
    "observed.measurement": 20
  },
  {
    "compound.string": "O=C(Nc1ccc(C(=O)O)c(F)c1)c1ccc2c(c1)N(S(=O)(=O)c1ccc(Cl)c(Cl)c1)CC2",
    "unit.abbrev": "µg/mL",
    "observed.measurement": 11
  },
  {
    "compound.string": "COc1ccc(Cl)cc1S(=O)(=O)N(C)c1cc(C(=O)Nc2nc(CC(=O)O)cs2)cc2c1OCO2",
    "unit.abbrev": "µg/mL",
    "observed.measurement": 399
  },
  {
    "compound.string": "O=C(COc1ccccc1)N1CCCC[C@@H]1c1noc(-c2ccc(-n3cnnn3)cc2)n1",
    "unit.abbrev": "µg/mL",
    "observed.measurement": 8
  },
  {
    "compound.string": "COc1ccc(Cl)cc1S(=O)(=O)c1cn(CC(N)=O)c2ccc(C(=O)Nc3ccccc3)cc12",
    "unit.abbrev": "µg/mL",
    "observed.measurement": 2
  },
  {
    "compound.string": "O=C([C@H]1CCCCN1C(=O)COc1ccccc1)N1Cc2ccc(C3CCOCC3)cc2C1",
    "unit.abbrev": "µg/mL",
    "observed.measurement": 14
  }
]

Request: Please give the measured solubility kinetic for this compound: `COc1ccc(Cl)cc1Cc1cn(C)c2ccc(C(=O)Nc3ccc(CC(=O)O)cc3)cc12`
Result: 44

Request: Please give the measured solubility kinetic for this compound: `O=C(COc1ccccc1)N1CCCC[C@@H]1c1nc(-c2ccc(Cl)cc2)no1`
Result: 11

Request: Please give the measured solubility kinetic for this compound: `COc1ccc(Cl)cc1S(=O)(=O)N1CCOc2c(Cl)cc(C(=O)Nc3nc(CC(=O)O)cs3)cc21`
Result: 12

Request: Please give the measured solubility kinetic for this compound: `O=C1COc2ccc(-c3n[nH]c([C@H]4CCCCN4C(=O)COc4ccccc4)n3)cc2N1`
Result: 62

Request: Please give the measured solubility kinetic for this compound: `O=C(O)c1ccc(NC(=O)c2ccc3c(c2)N(S(=O)(=O)c2cccc(Cl)c2)CCO3)cc1`
Result: 2

====

Target: Carnitine O-palmitoyltransferase 1, muscle isoform (Homo sapiens, UniProt Q92523)
Sequence (Q92523 whole entry): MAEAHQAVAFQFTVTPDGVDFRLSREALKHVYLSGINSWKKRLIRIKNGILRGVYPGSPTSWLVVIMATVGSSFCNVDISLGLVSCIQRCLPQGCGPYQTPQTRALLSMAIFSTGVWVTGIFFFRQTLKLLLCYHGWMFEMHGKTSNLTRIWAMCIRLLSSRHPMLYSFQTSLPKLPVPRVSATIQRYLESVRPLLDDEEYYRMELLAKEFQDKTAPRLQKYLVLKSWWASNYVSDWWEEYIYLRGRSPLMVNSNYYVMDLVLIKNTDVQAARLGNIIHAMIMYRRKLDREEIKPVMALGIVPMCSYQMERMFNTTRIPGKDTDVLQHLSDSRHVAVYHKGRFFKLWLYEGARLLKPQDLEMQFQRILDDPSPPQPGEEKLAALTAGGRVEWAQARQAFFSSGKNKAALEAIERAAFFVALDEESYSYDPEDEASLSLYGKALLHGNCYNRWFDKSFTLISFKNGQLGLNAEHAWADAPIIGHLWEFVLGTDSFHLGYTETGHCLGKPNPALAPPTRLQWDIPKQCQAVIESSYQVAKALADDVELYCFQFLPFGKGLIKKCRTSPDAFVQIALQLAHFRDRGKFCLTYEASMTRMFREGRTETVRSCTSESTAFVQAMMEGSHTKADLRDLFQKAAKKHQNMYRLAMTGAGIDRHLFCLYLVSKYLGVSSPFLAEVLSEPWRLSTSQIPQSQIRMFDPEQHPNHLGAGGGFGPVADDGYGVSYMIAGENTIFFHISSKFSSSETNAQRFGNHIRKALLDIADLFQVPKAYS
Experiment: SUPPLEMENTARY: Inhibition of Carnitine palmitoyltransferase 1, muscle isoform
The entries below come with measured IC50 values attached.
Value expressed in µM; do not type the unit.

[
  {
    "compound.string": "COc1ccc(Cl)cc1S(=O)(=O)N1COCc2ccc(C(=O)Nc3ccc(CC(=O)O)cc3)cc21",
    "observed.measurement": 3.28
  }
]

Request: Please give the measured IC50 for this compound: `COc1ccc(Cl)cc1S(=O)(=O)N1CCCc2ccc(NC(=O)c3ccc(CC(=O)O)cc3)cc21`
Result: 1.82

Request: Please give the measured IC50 for this compound: `CCCN(c1cc(C(=O)Nc2ccn(CC(=O)O)n2)cc2c1OCO2)S(=O)(=O)c1cc(Cl)ccc1OC`
Result: 1.76

====

Target: Carnitine O-palmitoyltransferase 1, liver isoform (Rattus norvegicus)
Sequence (P32198 whole entry, canonical isoform): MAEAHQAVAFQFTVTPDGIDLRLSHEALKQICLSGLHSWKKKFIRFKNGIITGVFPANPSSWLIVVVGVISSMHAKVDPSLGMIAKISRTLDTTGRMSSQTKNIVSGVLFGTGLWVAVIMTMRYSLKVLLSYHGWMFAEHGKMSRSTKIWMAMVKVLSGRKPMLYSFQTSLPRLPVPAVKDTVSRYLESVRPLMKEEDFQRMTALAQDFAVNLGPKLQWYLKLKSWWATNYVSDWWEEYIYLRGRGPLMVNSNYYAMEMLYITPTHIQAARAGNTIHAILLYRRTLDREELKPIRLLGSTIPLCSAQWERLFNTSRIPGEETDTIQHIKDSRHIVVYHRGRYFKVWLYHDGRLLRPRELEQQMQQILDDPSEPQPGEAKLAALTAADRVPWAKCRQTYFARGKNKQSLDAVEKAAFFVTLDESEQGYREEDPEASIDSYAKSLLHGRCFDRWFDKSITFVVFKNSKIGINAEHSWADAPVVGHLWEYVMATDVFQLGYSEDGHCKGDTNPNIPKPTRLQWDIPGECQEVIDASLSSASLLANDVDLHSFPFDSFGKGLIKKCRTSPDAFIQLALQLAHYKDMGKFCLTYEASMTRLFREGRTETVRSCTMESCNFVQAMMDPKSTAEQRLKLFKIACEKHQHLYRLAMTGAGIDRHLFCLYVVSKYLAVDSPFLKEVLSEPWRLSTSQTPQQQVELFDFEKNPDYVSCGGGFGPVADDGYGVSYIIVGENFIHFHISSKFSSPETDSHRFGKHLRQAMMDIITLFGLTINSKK
Assay: SUPPLEMENTARY: Inhibition of Carnitine palmitoyltransferase 1, liver isoform
Our labelling divides records by IC50 into ranges: low value: < 100 nM; medium value: ≥ 100 nM and < 300 nM; high value: ≥ 300 nM

Solved cases below.
[
  {
    "compound.string": "COc1ccc(Cl)cc1S(=O)(=O)N1COCc2ccc(C(=O)Nc3ccc(C(=O)O)cc3)cc21",
    "target.or.test.system": "Carnitine O-palmitoyltransferase 1, liver isoform (Rattus norvegicus)",
    "class.assignment": "medium value"
  },
  {
    "compound.string": "CS(=O)(=O)c1cccc(-c2nc([C@H]3CCCCN3C(=O)COc3ccccc3)no2)c1",
    "target.or.test.system": "Carnitine O-palmitoyltransferase 1, liver isoform (Rattus norvegicus)",
    "class.assignment": "medium value"
  },
  {
    "compound.string": "COc1ccc(Cl)cc1S(=O)(=O)N1CCSc2ccc(C(=O)Nc3ccc(C(=O)O)c(Cl)c3)cc21",
    "target.or.test.system": "Carnitine O-palmitoyltransferase 1, liver isoform (Rattus norvegicus)",
    "class.assignment": "medium value"
  }
]

Request: Which IC50 category applies to `O=C(COc1ccccc1)N1CCCC[C@@H]1c1nnn(-c2ccc(F)cc2)n1` here?
Result: medium value

Request: Which IC50 category applies to `Nc1cc(-c2n[nH]c([C@H]3CCCCN3C(=O)COc3ccccc3)n2)ccn1` here?
Result: high value

Request: Which IC50 category applies to `CC(=O)c1ccc(-c2nc([C@H]3CCCCN3C(=O)COc3ccccc3)no2)cc1` here?
Result: low value

Request: Which IC50 category applies to `COc1ccc(Cl)cc1Cc1cn(C)c2ccc(C(=O)Nc3ccc(CC(=O)O)cc3)cc12` here?
Result: medium value

====

Target: Carnitine O-palmitoyltransferase 1, muscle isoform (Homo sapiens)
Assay: SUPPLEMENTARY: Inhibition of Carnitine palmitoyltransferase 1, muscle isoform
The entries below come with measured IC50 values attached.

Completed entries (count: 3):
[
  {
    "compound": "COc1ccc(Cl)cc1S(=O)(=O)N1CCOc2ccc(C(=O)Nc3ccc(-c4noc(=O)[nH]4)cc3)cc21",
    "IC50": "0.134 µM"
  },
  {
    "compound": "COc1ccc(Cl)cc1S(=O)(=O)N1COc2ccc(C(=O)Nc3ccc(C(=O)O)c(F)c3)cc21",
    "IC50": "2.08 µM"
  },
  {
    "compound": "O=C(COc1ccccc1)N1CCCC[C@@H]1c1nc(-c2ccc3[nH]c(=O)[nH]c3c2)no1",
    "IC50": "13.2 µM"
  }
]

Request: Please give the measured IC50 for this compound: `COc1ccc(Cl)cc1S(=O)(=O)N1C[C@H](C)c2ccc(C(=O)Nc3ccc(C(=O)O)cc3)cc21`
Result: 1.42 µM

Request: Please give the measured IC50 for this compound: `CCn1cc(Sc2cc(Cl)ccc2OC)c2cc(C(=O)Nc3ccc(C(=O)O)cc3)ccc21`
Result: > 100 µM

Request: Please give the measured IC50 for this compound: `O=C(COc1ccccc1)N1CCCC[C@@H]1c1nc(-c2ccc3[nH]ncc3c2)n[nH]1`
Result: > 100 µM

====

Test: SUPPLEMENTARY: PAMPA permeability assay
Type: physicochemical
Settings: read-out: Permeability
assay.endpoint: Papp (×10⁻⁶ cm/s)
Value expressed in ×10⁻⁶ cm/s; do not type the unit.

Completed entries (count: 5):
[
  {
    "compound.string": "COc1ccc(Cl)cc1Cc1cn(C)c2ccc(C(=O)Nc3ccc(C(=O)O)cc3)cc12",
    "observed.measurement": 0.47
  },
  {
    "compound.string": "COc1ccc(-c2noc([C@H]3CCCCN3C(=O)C#Cc3ccccc3)n2)cc1",
    "observed.measurement": 2.48
  },
  {
    "compound.string": "COc1ccc(C)cc1S(=O)(=O)n1ccc2ccc(C(=O)Nc3ccc(CC(=O)O)cc3)cc21",
    "observed.measurement": 2.82
  },
  {
    "compound.string": "COc1ccc(Cl)cc1S(=O)(=O)N1COc2c(C)cc(C(=O)Nc3nc(CC(=O)O)cs3)cc21",
    "observed.measurement": 2.77
  },
  {
    "compound.string": "COc1ccc(Cl)cc1S(=O)(=O)c1cn(CCCC(=O)O)c2ccc(C(=O)Nc3ccccc3)cc12",
    "observed.measurement": 0.27
  }
]

Request: Please give the measured Papp for this molecule: `O=C(COc1ccccc1)N1CCCC[C@@H]1c1csc(-c2ccc(C(F)(F)F)nc2)n1`
Result: 1.31

Request: Please give the measured Papp for this molecule: `COc1ccc(Cl)cc1CN1C(=O)C2(CC2)c2ccc(C(=O)Nc3nc(CC(=O)O)cs3)cc21`
Result: 1.03

Request: Please give the measured Papp for this molecule: `NS(=O)(=O)c1ccc2c(c1)CN(C(=O)[C@H]1CCCCN1C(=O)COc1ccccc1)CC2`
Result: 4.46
